Listed here are compounds together with their documented half-life.
- Protocol: Metabolic stability in mouse liver microsomes
- Format: ADME, Microsome
Field format: number, assumed min, no unit text.

> print(dat)
                         compound.smiles  numeric.readout
1  COc1ccc(C(=O)/C=C/c2ccnc3ccccc23)cc1F             30.6

### Prompt Provide half-life value for the following compound: `COc1ccc(C(=O)/C=C/c2ccnc3ccccc23)cc1OC`
### Response 15.6

### Prompt Respond only with half-life recorded for `O=C(/C=C/c1cnc2ccccc2c1)c1cc(Cl)ccc1Cl`
### Response 24.6

====

In this section we review reported Ratio IC50 values for a set of compounds.
- Tested on: Plasmodium falciparum
- Protocol: Resistance index, IC50 of Plasmodium falciparum W2/IC50 Plasmodium falciparum D6
- Type: ADME, organism-based
- Particulars: in vitro
In your answer, state the number alone without any accompanying words.

As a guide, the following entries are already answered.
> print(dat)
                             compound.smiles  numeric.readout
 1  O=C(/C=C/c1cnc2ccccc2c1)c1ccc(Cl)c(Cl)c1              3.9
 2   COc1ccc(C(=O)/C=C/c2cnc3ccccc3c2)c(F)c1              1.5
 3  COc1ccc(OC)c(C(=O)/C=C/c2cccc3ccccc23)c1             0.97
 4      COc1ccc(C(=O)/C=C/c2cnc3ccccc3c2)cc1              1.8
 5  COc1cc(OC)cc(C(=O)/C=C/c2cnc3ccccc3c2)c1             0.39
 6    COc1ccc(C(=O)/C=C/c2ccc3ccccc3c2)cc1OC             0.79
 7    O=C(/C=C/c1cnc2ccccc2c1)c1ccc(Cl)cc1Cl              0.8
 8    O=C(/C=C/c1cnc2ccccc2c1)c1cc(Cl)ccc1Cl              2.7
 9  COc1ccc(C(=O)/C=C/c2cnc3ccccc3c2)c(OC)c1OC             0.42
10  COc1ccc(C(=O)/C=C/c2cccc3ccccc23)c(OC)c1OC              1.3

### Prompt Given the compound `COc1ccc(C(=O)/C=C/c2ccc3ccccc3n2)cc1F` , write its reported Ratio IC50.
### Response 4.1

====

- System: Plasmodium falciparum
- Protocol: Resistance index, IC50 of Plasmodium falciparum W2/IC50 Plasmodium falciparum D6
- Type: ADME, organism-based
- Particulars: in vitro
Readout Name: Ratio IC50
Answer using only a numeral; do not append any unit.

// worked examples, Ratio IC50 included
> print(dat)
                            compound.smiles        measured.target  readout.name  numeric.readout
1      O=C(/C=C/c1ccnc2ccccc12)c1cc(F)ccc1F  Plasmodium falciparum    Ratio IC50              2.3
2  COc1ccc(C(=O)/C=C/c2cnc3ccccc3c2)c(OC)c1  Plasmodium falciparum    Ratio IC50              0.7
3  COc1cc(C(=O)/C=C/c2cnc3ccccc3c2)cc(OC)c1OC  Plasmodium falciparum    Ratio IC50             0.67
4  COc1ccc(C(=O)/C=C/c2ccc3ccccc3n2)c(OC)c1OC  Plasmodium falciparum    Ratio IC50              1.1
5    COc1ccc(C(=O)/C=C/c2ccnc3ccccc23)cc1Cl  Plasmodium falciparum    Ratio IC50             0.53

Alright, here's another molecule for you.
### Prompt Provide measured Ratio IC50 on Plasmodium falciparum for `COc1cc(C(=O)/C=C/c2cccc3ccccc23)cc(OC)c1OC` please.
### Response 0.92
